biological target: metabotropic glutamate receptor 5 (Rattus norvegicus); test: FLIPR Calcium 3 fluorescence-based functional assay of intracellular calcium, mGluR5 antagonist activity; settings: inhibition of glutamate (EC90, ~50 uM) stimulated calcium levels, mGluR5 HEK-293 cells; read-out: mGluR5 FLIPR MP Antagonist DR IC50
Sequence (P31424 21-1203): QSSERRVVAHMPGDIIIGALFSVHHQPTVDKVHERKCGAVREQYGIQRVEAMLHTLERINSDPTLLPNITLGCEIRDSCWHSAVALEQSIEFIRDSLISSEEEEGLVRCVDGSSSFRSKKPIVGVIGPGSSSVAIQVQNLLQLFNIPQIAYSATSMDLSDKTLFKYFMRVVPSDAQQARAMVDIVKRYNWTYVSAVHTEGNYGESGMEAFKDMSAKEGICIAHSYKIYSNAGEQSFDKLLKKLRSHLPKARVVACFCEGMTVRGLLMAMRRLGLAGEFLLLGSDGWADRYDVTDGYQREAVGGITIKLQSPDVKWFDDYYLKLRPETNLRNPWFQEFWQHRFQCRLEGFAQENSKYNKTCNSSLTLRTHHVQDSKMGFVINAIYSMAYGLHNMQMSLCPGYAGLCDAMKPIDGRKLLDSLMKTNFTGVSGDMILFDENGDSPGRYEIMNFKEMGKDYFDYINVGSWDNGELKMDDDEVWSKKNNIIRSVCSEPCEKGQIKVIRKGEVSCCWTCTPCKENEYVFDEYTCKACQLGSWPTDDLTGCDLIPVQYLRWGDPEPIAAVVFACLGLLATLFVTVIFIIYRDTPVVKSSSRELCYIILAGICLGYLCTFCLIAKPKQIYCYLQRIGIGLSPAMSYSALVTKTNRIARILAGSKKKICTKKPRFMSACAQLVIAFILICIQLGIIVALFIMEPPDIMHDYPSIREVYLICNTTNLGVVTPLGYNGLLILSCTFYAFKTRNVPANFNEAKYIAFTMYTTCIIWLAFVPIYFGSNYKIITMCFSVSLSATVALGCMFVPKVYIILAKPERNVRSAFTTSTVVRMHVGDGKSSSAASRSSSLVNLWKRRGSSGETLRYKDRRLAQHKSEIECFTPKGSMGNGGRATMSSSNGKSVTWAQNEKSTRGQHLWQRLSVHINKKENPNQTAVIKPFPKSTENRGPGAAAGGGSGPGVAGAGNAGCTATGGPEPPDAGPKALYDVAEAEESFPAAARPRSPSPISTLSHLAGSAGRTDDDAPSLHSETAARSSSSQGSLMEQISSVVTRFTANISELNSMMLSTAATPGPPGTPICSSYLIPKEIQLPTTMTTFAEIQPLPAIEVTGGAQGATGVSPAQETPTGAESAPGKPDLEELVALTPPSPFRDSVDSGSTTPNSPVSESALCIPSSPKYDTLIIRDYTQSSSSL
For each record, check the reported IC50: if it is below 50 nM write Criterion met, else write Criterion not met.

Please review the entries below; each comes with its answer.
COc1ccc(C(=O)N2CCc3c(F)cccc3C2)cc1C#Cc1ccccn1 [Example 3]: Criterion met
COc1ccc(C(=O)N2CCc3c(F)ccc(F)c3C2)cc1C#Cc1ccccn1 [Example 6]: Criterion not met
COc1ccc(C(=O)N2Cc3cc(Cl)c(Cl)cc3C2)cc1C#Cc1ccccn1 [Example 34]: Criterion not met
COc1ccc(C(=O)N2Cc3cnc(C)c(N)c3C2)cc1C#Cc1ccccn1 [Example 44]: Criterion met
COc1ccc(C(=O)N2Cc3ccc(F)cc3C2)cc1C#Cc1ccccn1 [Example 37]: Criterion met

Quick check: does Cc1nc2c(o1)CCN(C(=O)c1ccc(C)c(C#Cc3ccccn3)c1)C2 [Example 90] have IC50 under 50 nM?
Criterion met

Regarding O=C(c1ccc(Cl)c(C#Cc2ccccn2)c1)N1CCc2c(Cl)cccc2C1 [Example 69] , kindly confirm whether its IC50 is beneath 50 nM.
Criterion not met

Identify whether the compound O=C(c1ccc(C(F)(F)F)c(C#Cc2ccccn2)c1)N1CCc2[nH]cnc2C1 [Example 101] records IC50 below 50 nM.
Criterion met

Lab note: IC50 threshold 50 nM. Does this compound come in strictly under it? O=C(c1ccc(Cl)c(C#Cc2ccccn2)c1)N1CCc2ccc(F)cc2C1 [Example 70]
Criterion met

# TODO verify IC50 < 50 nM strictly for this compound: O=C(c1ccc(F)c(C#Cc2ccccn2)c1)N1CCc2ccccc2C1 [Example 71]
Criterion not met

Hello, is IC50 of the following compound strictly smaller than 50 nM? O=C(c1ccc(C(F)(F)F)c(C#Cc2ccccn2)c1)N1CCc2ncccc2C1 [Example 98]
Criterion met

Bench note: check whether COc1ccc(C(=O)N2CCc3ncccc3C2)cc1C#Cc1ccccn1 [Example 39] shows IC50 below 50 nM
Criterion met

Input COc1ccc(C(=O)N2Cc3cnc(C)c(C)c3C2)cc1C#Cc1ccccn1 [Example 42] ; condition: IC50 strictly below 50 nM. Does it hold?
Criterion met

Say whether its IC50 is strictly beneath 50 nM. Entry: CCOc1ccc(C(=O)N2CCc3c(Cl)cccc3C2)cc1C#Cc1ccccn1 [Example 77]
Criterion met
